Molecular target: T1, cynomolgus monkey recombinant ADAMTS5 (cynomolgus monkey, UniProt Q9UNA0 262-622 (human entry), limits assumed)
T1 construct: in house, HEK293, His tag in the entry; also called cyno ADAMTS5
T1 chain: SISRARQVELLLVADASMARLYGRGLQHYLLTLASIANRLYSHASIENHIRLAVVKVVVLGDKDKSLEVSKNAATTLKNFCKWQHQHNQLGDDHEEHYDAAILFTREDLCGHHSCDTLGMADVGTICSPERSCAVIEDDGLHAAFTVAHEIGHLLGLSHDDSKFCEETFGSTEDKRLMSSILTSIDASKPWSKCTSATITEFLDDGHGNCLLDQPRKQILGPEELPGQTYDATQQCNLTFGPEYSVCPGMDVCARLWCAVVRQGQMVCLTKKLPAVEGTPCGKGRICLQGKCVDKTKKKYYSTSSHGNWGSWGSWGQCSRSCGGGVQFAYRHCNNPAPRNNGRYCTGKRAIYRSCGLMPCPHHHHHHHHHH
Assay: SPR off-rate, Biacore T100, ADAMTS5 immobilised, experiment 1
Catalogue of koff readings, one per entry.

binder: Nanobody 3B02 (VHH, tagged as tested (anti-Flag detection, IMAC); also called 03B02; 3B2) VHH: EVQLVESGGGFVQAGGSLRLSCVASRRTISSGTMGWFRQAPGKEREFVAAIRWSSGMPYYLDSVMDRFTISRDNAKNTVSLQMNSLQPEDTAVYYCAADRSAFRDPSFDVNYEYWGRGTLVTVSS
readout-units: s⁻¹
koff: 0.00074
--
binder: Nanobody 2A12 (VHH, tagged as tested (anti-Flag detection, IMAC); also called 02A12) VHH: EVQLVESGGGLVQAGGSLRLSCAASGRTFSSYAMGWFRQAPGKERDFVAGISRSAGRTYYVDSVKGRFTISRDSAKNTVYLQMNRLKPEDTAVYYCAADLDPNRIFSRDEAAYWGQGTLVTVSS
readout-units: s⁻¹
koff: 0.0001

Just for reference, patent US20200317802A1 is where these values come from.
